Assay: label from the status in PepcDB records
test readout: protein production

chain=DDDLEVKEENGVWVLNDGNFDNFVADKDTVLLEFYAPWCGHCKQFAPEYEKIASTLKDNDPPIAVAKIDATSASMLASKFDVSGYPTIKILKKGQAVDYDGSRTQEEIVAKVREVSQPDWTPPPEVT reported_value="not failed"
chain=MRIEAAELRILELPLKFRFETSFGVQTKRTILLLRLFGEGLEGLGEGVMERLPLYREETVAGARYLLEEVFLPRVLGRDLPNPEALREALAPFRGNPMAKAVLEMAFFDLWAKALGRPLWQVLGGVRQAVEVGVSLGIQPSVEDTLRVVERHLEEGYRRIKLKIKPGWDYEVLKAVREAFPEATLTADANSAYSLANLAQLKRLDELRLDYIEQPLAYDDLLDHAKLQRELSTPICLDESLTGAEKARKAIELGAGRVFNVKPARLGGHGESLRVHALAESAGIPLWMGGMLEAGVGRAHNLHLATLPGFTKPGDVSSASRYWEEDIVEEALEAKDGLMPVPEGVGIGVHLKLPFVERVTLWQRYMSAS reported_value="not failed"

* * *

Assay: label from the status in PepcDB records
test readout: protein production

chain=GWKVEYMAIADPQTIDQTPIVIVGGAFQNFNSYKYCVEQLFHCGPVILIDLPSMGANQQITNRDSGVSAAVLELPDLAKILVEWLDIIKIQKISMMGMSLGSVVASCFADLRPDMIDRLVLMGVMQKTRKSWRMILEESLKLMQENRMEEFGQAVILYLVNHAKLDQTRMSPTAKRLFFRQMAEFNPTERLRYEINCQRLLRLKDVPIPQCKTLVAAGQYDSFTLPFENANFALQCPDVEFALIANADHVPQLQRRKETMRLFETFLNH reported_value=failed
chain=MTGVSDIQEAVAQIKAAGPSKPRLARDPVNQPMINNWVEAIGDRNPIYVDDAAARAAGHPGIVAPPAMIQVWTMMGLGGVRPKDDPLGPIIKLFDDAGYIGVVATNCEQTYHRYLLPGEQVSISAELGDVVGPKQTALGEGWFINQHIVWQVGDEDVAEMNWRILKFKPAGSPSSVPDDLDPDAMMRPSSSRDTAFFWDGVKAHELRIQRLADGSLRHPPVPAVWQDKSVPINYVVSSGRGTVFSFVVHHAPKVPGRTVPFVIALVELEEGVRMLGELRGADPARVAIGMPVRATYIDFPDWSLYAWEPDE reported_value=failed
chain=MKTAQHETISNREFYFVLYMMLLYVTGWVIDVNGLFLSSYFNLAGEIMLPLVGGIVGLFIMSVNKQQTK reported_value=failed

* * *

Assay: label from the status in PepcDB records
test readout: protein production

chain=MILFADYNTPYLFAISFVLLIGLLEIFALICGHMLSGALDAHLDHYDSITTGHISQALHYLNIGRLPALVVLCLLAGFFGLIGILLQHACIMVWQSPLSNLFVVPVSLLFTIIAVHYTGKIVAPWIPRDHSSAITEEEYIGSMALITGHQATSGNPCEGKLTDQFGQIHYLLLEPEEGKIFTKGDKVLIICRLSATRYLAENNPWPQIL reported_value=failed
chain=MSILQGILDTYAQFFDLDMWIKVLQDPVSWGLIGTLVVLEGLLSADNALVLAVMVKHLPEEKRKKALFYGLIGAYVFRFIAIGIGMFLIKLAWVKVLGALYLAWLSVKYFIDKRKGNAEEEEAHGMNQNSILFRMFGVFWGTVAMVELMDIAFSVDSVLAAFGVSNEVWILLLGGMLGILMMRGIAGVFLKLLERIPELETTAYILILIIAAKMLLSVIHIEISHTVFFIILVVAFGATFILHYMKNSGQAKEEVAATKEDNK reported_value=failed
chain=MQNPRRICVADPNHRLSQKRFTRNSRDIFICPDCGCIMADVDFDHDQYESGDYYTMQHKTVQSIEEVWGFRWRYILDQILKINGRSSLLDVGAGNGYFVALASREFSFDASGLEISQEEVQFAADVLNIGLIREDLTQHNLDYDVVTCLNVLEHVVDPQLFLSHLVNRVKPGGLLVITTPNPACIHRKVKGLKNWNMIAPPHHINLFTKESLYILLMRYGLIQLDYQTISTYVNFVRGFDTENLLLRRLFFNLLKIFDLGADHFFIVKKPSQC reported_value=failed

* * *

Test: label from the status in PepcDB records
test readout: protein production

chain=MNIETLMIKNPPILSKEDRLGSAFKKINEGGIGRIIVANEKIEGLLTTRDLLSTVESYCKDSCSQGDLYHISTTPIIDYMTPNPVTVYNTSDEFTAINIMVTRNFGSLPVVDINDKPVGIVTEREFLLLYKDLDEIFPVKVFMSTKVQTIYKEVRLDQAVKLMLRRGFRRLPVIDDDNKVVGIVTVVNAIKQLAKAVDKLDPDYFYGKVVKDVMVTNLVTIDELASVNRAAAEMIVKRIGSLLILNKDNTIRGIITERDLLIALHHILVMEKFKEKL reported_value="not failed"
chain=ARQVTPGQVMVASTVGKLSALLAADLSDEQAQRLGLDTLLPLRESDGPTLFCFHPASGFAWQFSVLARYLSPRWSITGIQSPRPQGPMASAASLDEVCEHHLQTLLAQQPHGPYYLFGYSLGGTLAQGIAARLRQRGEAVAFLGLLDTWPPETQNWAEKEANGLDPEVLAEIDREREAFLAAQQGQASGELFSAIEGNYADAVRLLTTAHSAKFDGKATLFVAEKTRQEGMDPQVVWGPWVGELEVFSQNCAHVDIISPQAFEAIGPVVREILG reported_value="not failed"

* * *

Experiment: label from the status in PepcDB records
test readout: protein production

chain=MFARFLAQLDFVLTCDRLKTALRTTRLHDGSRLENSAEHSWHLALLALTLAEYAPTGTDVGRVVRLLLMHDLVEIGAGDLSFDAPAEAQAAQQEAEARAAAELFGLLPTDQAAEFLGLWQEFEARQTTEVRFARALDALQPMLLTWGPGAQGCAASHPELTHLRVLGLKEKHLREFPELWAAAQGVMAQAQARGVLQPLEHHHHHH reported_value=failed
chain=RIKPGPNGRALLFIHGTFSTTDGSFGDLASAEFFGELARTYGNAIYGFDHYSVSVTPEKNASDILKTLPSGGIDCDVVTHSRGGLVLRTLNERQGDLSQGKRFRLQRAALVACPNEGTQLATPDRWQGTLGWLANLLDLFPPNPITSNAALVMHWVTWFAKVGVAAAEG reported_value=failed
chain=MSVASLPSFLCLSQESSRRASARRESPSSPRTWAGWIPVTGTGMRECVVALCLLLTLIFAAASPALAFNPDEVLKDPVLEQRARNLTSQLRCMVCQNQSIDDSNAELARDLRVLVRERLVQGDSDKAVIDYVVSRYGEFVLLKPRLSLRTLLLWGAPIGLTLAGIFAVFVFSRRRATQERPQKLSADEEERIRNLIEK reported_value=failed

* * *

Test: label from the status in PepcDB records
test readout: protein production

chain=MSTLIQDLKAQAGIFESDADQVHGLLAEFPDPGALLHAAEAVREEGYRHFDTHSPFPIHGMDEAMGLGNASAVGVLTFFGGITGCVVAYLLQWWTAAVDYPLNISGKPFFAVEPSVPIMFELTILFAAFGTVAGMFALNGLPRPYNPLFYSDRFKGATDDRFFLHIAASDDEFDVEDSAAMLQRLGAHHLELVKDDGTVDA test_readout="protein production" reported_value=failed
chain=MLEAPLLSICIPAYNRPNWLQRGLESIAVGEGSDIEIVITDDSDTDQGQAIASEVLKNWSGSWCYEHHQQPLGMAQNWNRAIQWATGQYVMVLHDDDFFLPQGLGLLVNKLRQLGSSSPVLLFGVRVVDAQERVVKRQGFRQDKLLPPHDALIRLFSDSSFVRFPAMVIRRDLFTEVGYFNPDWREPCDLEMWMRLFARYGVYCCREATVAYRVHGQALTMGSFHGETVNILLRLFGELEKLNILTTRDIEFCKGLFFHQYILAGAWRQLRRRRWREFKQVMGLFDLPELKSLSCPVKWRFLRGLFSLTLEHHHHHH test_readout="protein production" reported_value=failed
chain=MGLNIKPLVVSVLGSVLLAGCATAPPKQQDNLCEIFREKSGWYDDAKYMEKEWGTPIHVAMAIIKQESSFRHDAKPPKDYVLGFIPWGRVSSAYGYAQAQDPAWDDFQDSTGQGGSRSNFDDSIMFVGWYTHETRRQLGISLWDPYNQYLAYHEGRGGYKRGTYKRKPSLMKVARRVEQTAKTYGWQLKQCRQELEDNSSWFF test_readout="protein production" reported_value=failed

* * *

Test: label from the status in PepcDB records
test readout: protein production

chain=GTTVPAPIMQTTDNSLTWLLQNLLDRTPGTRHALVLSRDGLRLCWTEHLTLDRADQLAAICSGIQALAQGASVEFGNGTGGVRHSMTEFHGGLLFIVEAGEGAHLAVVAVEDADPGVVGHQMTELVEQIGEHLRAEPRH reported_value=failed
chain=MIKETVFKSFDTPAALEQQLANKIASQLQEAVDARGKASLVVSGGSTPLKLFELLSMKSIDWSDVYITLADERWVDVEDSASNERLVREHLLQNRAANAKFRGLKNMFSTAEAGADMTCESLSNFPRPFDVVVLGMGNDGHTCSWFPCSAELNDALTTQALCVATNPTTAPHGRITLSKNAILNSRQIYLHLVGEQKLSVYRQALENDDVNAMPIRAVLAQRKTPVDVFWSA reported_value=failed
chain=MIELLISILTYALISLQSFYRKMDRPAASTIGAALMLAFGVMSLKEAVRAIDYNTIMLLFGMMVLTAYLGIAGFFDWLASKIMGFSGNGKRLLFTIVFSSGFLSALFVNDTICVFMTPVVVRVALSAGISPIPLLIALATSANVGSAVTIIGNPQNMLIGLKSGIGFVQFTAKMLPVGVAGIFIVYSVIYVLYRGELGKLRNGKIEVNLNRRLAAKGLLTFALVLILFVTEFYPVSLSAFIGAAIMFAIGGVKPREALEKVDWGLLLLFCNLFIVMHGFEKSYGEKILSMLSFGESFADYLYFSLLTVAGSNLVSNVPFVMMVLPAAKGAAADFWLILAMASTFAGNLTLIGSVANLIVAESAERHGVHLSFFEYLKAGVPVTFATVLVGALLIYIT reported_value=failed
chain=RALRRRGGDAAAKLAGLVLIAPAPDFTEALMWKGFSPEIRAEIETKGVWHRPSEYGEPYPITKALIEDGRNHLVLDGMIEVGCPVRILQGKQDEDVPWRHAFELAERLPTDDVVLTMIQDGDHRLSRPQDIARMLAAVEE reported_value=failed
chain=MYGEGDFYTIKSKRDYEFYLEADRLALGKNCKKPRLIGDDIWKFQRLLRQAEYYSNCQNSLLHKLYLKYILFRFHRMSIRLGFSIPINVFGPGLCIAHRGTIVVNKGARVGENCRIHACTNIGSGRDNIFLAPKIGNGVYIGPGAKIFGSVEIADNIAIGANSVVNRSFYERGISIAGVPAKKISNKGSDGMVIAATKTVSVPVSQETILEHHHHHH reported_value="not failed"
chain=MAGHTDNEITIAAPMELVWNMTNDIEKWPGLFSEYASVEVLGRDDDKVTFRLTMHPDADGKVWSWVSERVADPVTRTVRAQRVETGPFQYMNIVWEYAETAEGTVMRWTQDFAMKPDAPVDDAWMTDNINRNSRTQMALIRDRIEQAAGERRTASVLADLEHHHHHH reported_value="not failed"
chain=PSHSLQAPEVRFSKEMECLQAMGFVNYNANLQALIATDGDTNAAIYKLKSSQGF reported_value="not failed"
chain=SLENLATAPVNQIQETISDNCVVIFSKTSCSYCTMAKKLFHDMNVNYKVVELDLLEYGNQFQDALYKMTGERTVPRIFVNGTFIGGATDTHRLHKEGKLLPLVHQCYLKKSKRKEFQ reported_value="not failed"
